assayedTarget: human IL-13 (source not stated for the assay) (human, UniProt P35225 35-146, limits assumed)
Sequence (P35225 35-146 limits assumed): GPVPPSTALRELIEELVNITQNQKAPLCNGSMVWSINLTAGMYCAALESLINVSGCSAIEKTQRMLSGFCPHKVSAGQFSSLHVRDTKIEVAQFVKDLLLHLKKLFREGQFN
assayInfo: cell-based or functional assay
valueType: IC50, IL-13 induced eotaxin release, Average (nM)
Provide only the numeric value, understood in nM.

stdin: Request the reported IC50, IL-13 induced eotaxin release, Average associated with mAb 176 (antibody, V domains shown) VH: EVQLVESGGGLVKPGGSLRLSCAASGFTFSSYSMNWVRQAPGKGLEWVSYISTSNSYIYYADSVKGRFTISRDNAKNSLYLQMNSLRAEDTAVYYCARDQVGATLDAFDIWGQGTMVTVSS VL: DIQMTQSPSSLSASVGDRVTFTCRASQDITDDLGWYQQKPGKAPKRLIYAASSLQSGVPPRFSGSGSGTEFTLTISSLQPEDFATYYCLQHNSYPFTFGPGTKVDIR
stdout: 0.233

Below: the item to evaluate.
stdin: Entry under review: mAb 243 (antibody, V domains shown) VH: EVQLVESGGGLVKPGGSLRLSCAASGFTFSSYSMNWVRQAPGKGLEWVSYISTSNSYIYYADSVKGRFTISRDNAKNSLYLQMNSLRAEDTAVYYCARDQVGATLDAFDIWGQGTMVTVSS VL: DIQMTQSPSSLSASVGDRVTFTCRASQDITDDLGWYQQKPGKAPKRLIYAASSLQSGVPSRFSGSGSGTEFTLTISSLQPEDFATYYCLQHNSYPFTFGPGTKVDIR . Reported IC50, IL-13 induced eotaxin release, Average?
stdout: 0.253

Where these numbers come from: patent US20100047253A1
